assay: Cytotoxicity determination in HepG2.2.15 cells (CCK-8 cell viability); type: cell-based; conditions: human, 6 days treatment, CCK-8 assay, highest concentration 100 uM
Classify: t when CC50 at 6 days is strictly less than 50 µM; f when CC50 at 6 days is not.

Qu. Regarding CCOC(=O)C1=C(CN2CC(F)(F)[C@H]3CN([C@H]4C[C@@H](C(=O)O)C4)C[C@H]32)NC(c2nccs2)=N[C@H]1c1cccc(F)c1C (single isomer, unassigned) [Compound 18B] , kindly confirm whether its CC50 at 6 days is beneath 50 µM.
Ans. f

Qu. Regarding CCOC(=O)C1=C(CN2CC(F)(F)[C@H]3[C@@H]2CCN3C[C@H]2C[C@H](C(=O)O)C2)NC(c2nccs2)=N[C@H]1c1cccc(F)c1C (single isomer, unassigned) [Compound 143A] , kindly confirm whether its CC50 at 6 days is beneath 50 µM.
Ans. t

Qu. Regarding CCOC(=O)C1=C(CN2CC(F)(F)[C@@H]3C(=O)N(CC(CC)(CC)C(=O)O)C[C@@H]32)NC(c2nccs2)=N[C@H]1c1cccc(F)c1C (single isomer, unassigned) , kindly confirm whether its CC50 at 6 days is beneath 50 µM.
Ans. f

Qu. Regarding CCOC(=O)C1=C(CN2CC(F)(F)[C@H]3[C@@H]2CCN3CC23CC(C(=O)O)(C2)C3)NC(c2nccs2)=N[C@H]1c1cccc(F)c1C (single isomer, unassigned) , kindly confirm whether its CC50 at 6 days is beneath 50 µM.
Ans. t

Qu. Regarding CCOC(=O)C1=C(CN2CC(F)(F)C3C2CCN3NCC(C)(C)C(=O)O)NC(c2nccs2)=N[C@H]1c1cccc(F)c1C (stereo partly shown) , kindly confirm whether its CC50 at 6 days is beneath 50 µM.
Ans. t

Qu. Regarding CCOC(=O)C1=C(CN2CC(F)(F)[C@@H]3[C@H]2CON3CCC(C)(C)C(=O)O)NC(c2nccs2)=N[C@H]1c1cccc(F)c1F (single isomer, unassigned) , kindly confirm whether its CC50 at 6 days is beneath 50 µM.
Ans. f

Qu. Regarding CCOC(=O)C1=C(CN2CC(F)(F)[C@H]3[C@@H]2CCN3CCC(C)(C)C(=O)O)NC(c2nccs2)=N[C@@H]1c1ccc(F)nc1C (relative stereo) , kindly confirm whether its CC50 at 6 days is beneath 50 µM.
Ans. f

* * *

assay: Cytotoxicity determination in HepG2.2.15 cells (CCK-8 cell viability); format: cell-based; conditions: human, 6 days treatment, CCK-8 assay, highest concentration 100 uM
What CC50 at 6 days was measured for each of the following?
Report as a plain number; the unit µM is understood.

Qu. Give the measured CC50 at 6 days of CCOC(=O)C1=C(CN2CC(F)(F)[C@H]3[C@@H]2CCN3C2CCC(C(=O)O)C2)NC(c2nccs2)=N[C@H]1c1cccc(F)c1C (single isomer, unassigned) [Compound 115] .
Ans. 24

Qu. Give the measured CC50 at 6 days of CCOC(=O)C1=C(CN2CC(F)(F)[C@H]3[C@@H]2CCN3C[C@@H](C)C(=O)O)NC(c2nccs2)=N[C@H]1c1cccc(F)c1Cl (single isomer, unassigned) [Compound 149A] .
Ans. 21.8

* * *

test system: HBV; experiment: Anti-HBV activity in HepG2.2.15 cells (HBV DNA in culture medium by qPCR); format: cell-based; conditions: Hepatitis B virus, HepG2.2.15, 144 h, HepG2.2.15 cells, 6 days treatment, HBV DNA in culture medium quantified by real-time PCR; read-out: EC50
valueKind: pEC50
// field semantics: pEC50 = negative decimal log of concentration (mol/L)

Qu. Give the measured pEC50 of CCOC(=O)C1=C(CN2CC(F)(F)[C@H]3CN(CC(C)C(=O)O)C[C@H]32)NC(c2nccs2)=N[C@H]1c1cccc(F)c1C (single isomer, unassigned) [Compound 15B] .
Ans. 7.57

Qu. Give the measured pEC50 of CCOC(=O)C1=C(CN2CC(F)(F)[C@@H]3[C@H]2CN(CC(F)(F)F)N3CCC(C)(C)C(=O)O)NC(c2nccs2)=N[C@H]1c1cccc(F)c1C (single isomer, unassigned) .
Ans. 7.21

Qu. Give the measured pEC50 of COC(=O)C1=C(CN2CC(F)(F)[C@@H]3[C@H]2CN(C(C)=O)N3CCC(C)(C)C(=O)O)NC(c2nccs2)=N[C@H]1c1ccc(F)c(F)c1Cl (single isomer, unassigned) [Compound 79A] .
Ans. 7.40

Qu. Give the measured pEC50 of CCOC(=O)C1=C(CN2CC(F)(F)[C@@H]3NCC[C@@H]32)NC(c2nccs2)=N[C@H]1c1cccc(F)c1C (single isomer, unassigned) .
Ans. 7.27

Qu. Give the measured pEC50 of CCOC(=O)C1=C(CN2CC(F)(F)[C@@H]3C(=O)N(CC(CC)(CC)C(=O)O)C[C@@H]32)NC(c2nccs2)=N[C@H]1c1cccc(F)c1C (single isomer, unassigned) .
Ans. 7.64

Qu. Give the measured pEC50 of CCOC(=O)C1=C(CN2CC(F)(F)[C@@H]3C(=O)N(CC4(C(=O)O)CCCC4)C[C@@H]32)NC(c2nccs2)=N[C@H]1c1cccc(F)c1C (single isomer, unassigned) .
Ans. 7.93

* * *

What pEC50 was measured for each of the following?
test system: HBV; experiment: Anti-HBV activity in HepG2.2.15 cells (HBV DNA in culture medium by qPCR); format: cell-based; conditions: Hepatitis B virus, HepG2.2.15, 144 h, HepG2.2.15 cells, 6 days treatment, HBV DNA in culture medium quantified by real-time PCR; read-out: EC50
// field semantics: pEC50 = negative decimal log of concentration (mol/L)

Qu. What value of pEC50 on HBV does CCOC(=O)C1=C(CN2CC(F)(F)[C@@H]3[C@H]2CON3CCC(C)(C)C(=O)O)NC(c2nccs2)=NC1c1cccc(F)c1Cl (single isomer, unassigned) have?
Ans. 8.40

Qu. What value of pEC50 on HBV does CCOC(=O)C1=C(CN2CC(F)(F)[C@H]3[C@@H]2CCN3C[C@@H]2CC[C@@H]2C(=O)O)NC(c2nccs2)=N[C@H]1c1cccc(F)c1C (single isomer, unassigned) [Compound 130A] have?
Ans. 8.12

Qu. What value of pEC50 on HBV does COC(=O)C1=C(CN2CC(F)(F)[C@@H]3CN(CC(C)(C)C(=O)O)C[C@@H]32)NC(c2nccs2)=N[C@H]1c1ccc(F)c(F)c1Cl (single isomer, unassigned) [Compound 21B] have?
Ans. 7.64

Qu. What value of pEC50 on HBV does CCOC(=O)C1=C(CN2CC(F)(F)[C@H]3[C@@H]2CCN3CCC(C)(C)C(=O)O)NC(c2nccs2)=N[C@H]1c1cccc(F)c1Cl (single isomer, unassigned) have?
Ans. 9.05

Qu. What value of pEC50 on HBV does CCOC(=O)C1=C(CN2CC(F)(F)[C@H]3CN([C@H]4C[C@H](C(=O)O)C4)C[C@H]32)NC(c2nccs2)=N[C@H]1c1cccc(F)c1C (single isomer, unassigned) [Compound 18A] have?
Ans. 7.21

* * *

What EC50 was measured for each of the following?
tested on: HBV; experiment: Anti-HBV activity in HepG2.2.15 cells (HBV DNA in culture medium by qPCR); format: cell-based; conditions: Hepatitis B virus, HepG2.2.15, 144 h, HepG2.2.15 cells, 6 days treatment, HBV DNA in culture medium quantified by real-time PCR; read-out: EC50
Report as a plain number; the unit µM is understood.

Qu. What value of EC50 on HBV does CCOC(=O)C1=C(CN2CC(F)(F)[C@H]3[C@@H]2CCN3CCC(C)(C)C(=O)O)NC(c2nccs2)=N[C@@H]1c1ccc(F)c(F)c1C (single isomer, unassigned) [Compound 139] have?
Ans. 0.0006

Qu. What value of EC50 on HBV does CCOC(=O)C1=C(CN2CC(F)(F)[C@@H]3[C@H]2CN(C(=O)C2CC2)N3CCC(C)(C)C(=O)O)NC(c2nccs2)=N[C@H]1c1cccc(F)c1C (single isomer, unassigned) [Compound 73] have?
Ans. 0.017

Qu. What value of EC50 on HBV does CCOC(=O)C1=C(CN2CC(F)(F)[C@@H]3C(=O)N(C[C@@H](C)C(=O)O)C[C@@H]32)NC(c2nccs2)=N[C@H]1c1cccc(F)c1C (single isomer, unassigned) [Compound 181A] have?
Ans. 0.0123

Qu. What value of EC50 on HBV does CCOC(=O)C1=C(CN2CC(F)(F)[C@H]3[C@@H]2CCN3CCC(C)(C)C(=O)O)NC(c2nccs2)=N[C@H]1c1ccc(F)c(F)c1Cl (single isomer, unassigned) [Compound 138] have?
Ans. 0.0005

Qu. What value of EC50 on HBV does CCOC(=O)C1=C(CN2C[C@H](F)[C@]3(F)C(=O)N(CC(C)(C)C(=O)O)C[C@H]23)NC(c2nccs2)=N[C@H]1c1cccc(F)c1C (single isomer, unassigned) [Compound 204B] have?
Ans. 0.102

// data source = patent US20230083012A1
